assay overview: Plasma exposures following IV infusion alone or in combination to Sprague-Dawley rats
assay setup: male, Sprague-Dawley, rat, in vivo, 1 mg/kg, Lenacapavir Concentrations in Rat Plasma When Dosed Alone, Lenacapavir IV infusion 1.0 mg/kg alone; 0.500 hrs; Mean
Description: The pharmacokinetics of EFdA and prodrug formula 4-A, as well as lenacapavir were studied in rats after IV infusion administration alone or in combination at a dose of 1.0 mg/kg each. […] Bioanalysis: A Sciex API-6500 Plus triplequadrupole mass spectrometer coupled with a Waters Acquity UPLC system (Framingham, MA 01701) was used for quantitative analysis of plasma samples. […] Overall, Analyst® determined the precision and accuracy for the calibration standards and QC samples.
readout name: concentration at 0.5 h (ng/mL)
Express it in ng/mL; write the number only.

concentration at 0.5 h measured on CC(C)(C#Cc1ccc(-c2ccc(Cl)c3c(NS(C)(=O)=O)nn(CC(F)(F)F)c23)c([C@H](Cc2cc(F)cc(F)c2)NC(=O)Cn2nc(C(F)(F)F)c3c2C(F)(F)[C@@H]2C[C@H]32)n1)S(C)(=O)=O [Lenacapavir, reference compound] = 789
